Task for the reader: assign each of the following compounds its reported melting point.
Return type: number; implicit unit °C.

Find the recorded melting point belonging to O=S(=O)(c1ccc(Nc2nccc(N3CCc4cc(F)ccc43)n2)cc1)N(CCN1CCCC1)C1CCN(C2CC2)CC1 [Example 2] and report it.
215.4

Find the recorded melting point belonging to Cn1cccc1CN1CCC(N(CCN2CCCC2)S(=O)(=O)c2ccc(Nc3nccc(N4CCc5cc(F)ccc54)n3)cc2)CC1 [Example 5] and report it.
94

Find the recorded melting point belonging to O=S(=O)(c1ccc(Nc2nccc(N3CCc4cc(F)ccc43)n2)cc1)N(CCN1CCCC1)C1CCOCC1 [Example 8] and report it.
100

Find the recorded melting point belonging to O=S(=O)(c1ccc(Nc2nccc(N3CCc4cc(F)ccc43)n2)cc1)N(CCN1CCCC1)C1CCN(CC(F)(F)F)CC1 [Example 7] and report it.
139.3

Find the recorded melting point belonging to O=S(=O)(c1ccc(Nc2nccc(N3CCc4cc(F)ccc43)n2)cc1)N(CCN1CCCC1)C1CCN(CCCC(F)(F)F)CC1 [Example 3] and report it.
198

Find the recorded melting point belonging to O=S(=O)(c1ccc(Nc2nccc(N3CCc4cc(F)ccc43)n2)cc1)N(CCN1CCCC1)C1CCN(Cc2ccsc2)CC1 [Example 4] and report it.
140

Find the recorded melting point belonging to O=S(=O)(c1ccc(Nc2nccc(N3CCc4cc(F)ccc43)n2)cc1)N(CCN1CCCC1)C1CCNCC1 [Example 1] and report it.
269.5

Find the recorded melting point belonging to O=S(=O)(c1ccc(Nc2nccc(N3CCc4cc(F)ccc43)n2)cc1)N(CCN1CCCC1)C1CCN(CCC(F)(F)F)CC1 [Example 6] and report it.
147
